Data origin, for the record: the Human Domainome abundance scans (Beltran et al. 2025)

B1: Chromodomain-helicase-DNA-binding protein 4, residues 365 to 417; numbered along this chain, Q14839 (parent)
chain: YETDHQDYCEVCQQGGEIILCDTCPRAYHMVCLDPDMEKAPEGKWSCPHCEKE

Variants of: B1
Experiment: abundance fitness (aPCA) (normalised: wild type 0, dead -1); higher = more abundant; growth selection in yeast, the domain comes from the species named
Details: Homo sapiens
Values of abundance fitness greater than or equal to -0.3 map to rule met; values below map to rule not met.

variant label: C50L
label class: rule not met

variant label: P48G
label class: rule met

variant label: P48W
label class: rule not met

variant label: Q14S
label class: rule met

variant label: V11P
label class: rule met

variant label: D7T
label class: rule met

variant label: G16P
label class: rule not met

variant label: G43L
label class: rule met

Let us examine a further case.
Challenge: For this variant, is measured abundance fitness -0.3 or higher? `M37W`
Response given: rule met
